- Measured target: SARS-CoV-2 nsp15 endoribonuclease (endoU) (Severe acute respiratory syndrome coronavirus 2, UniProt P0DTD1)
- Method summary: biochemical
- Format: biochemical
- Assay conditions: read-out: 1° FRET Assay % inhibition
Measured inhibition at 10 µM accompanies every entry in the list below.
Express the result in % but write the number alone.

Here's what some known entries look like.
| Molecule | Number |
| --- | --- |
| CC1(C)CCC2=C(O1)c1ccccc1C(=O)C2=O | 73 |
| COC1=C(N)C(=O)c2nc(-c3nc(C(=O)O)c(C)c(-c4ccc(OC)c(OC)c4O)c3N)ccc2C1=O | 89 |
| COc1cccc2c1C(=O)c1c(O)c3c(c(O)c1C2=O)C[C@@](O)(C(=O)CO)C[C@@H]3O[C@H]1C[C@H](N)[C@H](O[C@@H]2CCCCO2)[C@H](C)O1 | 66 |
| CCc1ccccc1NC(=O)Oc1ccc2c(c1)[C@]1(C)CCN(C)O[C@@H]1N2C | 51 |
| Cc1cc(N)c2cc(NC(=O)Nc3ccc4nc(C)cc(N)c4c3)ccc2n1 [Aminoquinuride] | 95 |

// returns reported inhibition at 10 µM for input CC(=O)O[C@H]1C[C@@H]2CC[C@@H]3[C@H](CC[C@@]4(C)[C@H]3C[C@H]([N+]3(C)CCCCC3)[C@@H]4OC(C)=O)[C@@]2(C)C[C@@H]1N1CCCCC1 [vecuronium bromide]
61

// returns reported inhibition at 10 µM for input `CC(=O)[C@]1(O)Cc2c(O)c3c(c(O)c2[C@@H](O[C@H]2C[C@H](N)[C@H](O)[C@H](C)O2)C1)C(=O)c1c(O)cccc1C3=O`
56

###

- Measured target: SARS-CoV-2 nsp15 (Severe acute respiratory syndrome coronavirus 2, UniProt P0DTD1)
- Type: binding
Measured DSF Assay ΔTm accompanies every entry in the list below.
Express the result in °C but write the number alone.

| Compound | Measured target | Number |
| --- | --- | --- |
| CC1(C)CCC2=C(O1)c1ccccc1C(=O)C2=O | SARS-CoV-2 nsp15 (Severe acute respiratory syndrome coronavirus 2, UniProt P0DTD1) | -11.5 |
| NCCCNc1ccc2c3c(nn2CCNCCO)-c2c(O)ccc(O)c2C(=O)c13 | SARS-CoV-2 nsp15 (Severe acute respiratory syndrome coronavirus 2, UniProt P0DTD1) | -1.1 |

// returns reported DSF Assay ΔTm for input `Cc1nc2c(s1)C(=O)C=C(NCCN(C)C)C2=O`
-11.3

###

- Measured target: SARS-CoV-2 nsp15 (Severe acute respiratory syndrome coronavirus 2)
- Format: binding
Property label: nsp15 Tm lowered by

Here's what some known entries look like.
| Compound | Result |
| --- | --- |
| O=C1C(NC2CCCCCCC2)=CC(=O)c2ncccc21 | more than 10 °C |
| CC1(C)C(=O)N=C2C1=C(O)C(=O)c1ccccc12 | more than 10 °C |
| O=C1NC(=O)/C(=C\c2ccccc2)C2=C1CCCC2 [Tesimide] | more than 10 °C |
| COC1=C(N)C(=O)c2nc(-c3nc(C(=O)O)c(C)c(-c4ccc(OC)c(OC)c4O)c3N)ccc2C1=O | more than 10 °C |

API: the following record is the query input.
// returns reported nsp15 Tm lowered by for input `Cc1nc2c(s1)C(=O)C=C(NCCN(C)C)C2=O`
more than 10 °C
